Consider the following compounds and their measured pIC50 readings.
Test system: HeLa
Assay: Cytotoxicity in human HeLa cells assessed as reduction in cell viability incubated for 48 hrs by MTT assay
Assay type: functional, cell-based
pIC50: −log10 of the molar value.
property.measured: pIC50

compound | property.measured | result.operator | observed
Nc1ncnc2c1cnn2C(NC(=O)OCCN1CCOCC1)C(Cl)(Cl)Cl (stereo not given) | pIC50 | > | 5.00
Cc1ncc([N+](=O)[O-])n1CCOC(=O)NC(Nc1ncccn1)C(Cl)(Cl)Cl (stereo not given) | pIC50 | = | 3.66
O=C(NC(Nc1ncnc2c1cnn2C(NC(=O)OCCc1ccccn1)C(Cl)(Cl)Cl)C(Cl)(Cl)Cl)OCCc1ccccn1 (stereo not given) | pIC50 | = | 3.96
Nc1nc(N)c2ncn(C(NC(=O)OCCc3ccccn3)C(Cl)(Cl)Cl)c2n1 (stereo not given) | pIC50 | = | 3.66
Cc1ncc([N+](=O)[O-])n1CCOC(=O)NC(n1cnc2c(NC(=O)c3ccccc3)ncnc21)C(Cl)(Cl)Cl (stereo not given) | pIC50 | < | 3.52
Cc1ncc([N+](=O)[O-])n1CCOC(=O)NC(n1cnc2ccccc21)C(Cl)(Cl)Cl (stereo not given) | pIC50 | = | 3.67
Cc1ncc([N+](=O)[O-])n1CCOC(=O)NC(n1cnc2c(N)ncnc21)C(Cl)(Cl)Cl (stereo not given) | pIC50 | < | 3.52
Cc1ncc([N+](=O)[O-])n1CCOC(=O)NC(n1cnc2c(OCc3ccccc3)nc(N)nc21)C(Cl)(Cl)Cl (stereo not given) | pIC50 | < | 3.52
Cc1ncc([N+](=O)[O-])n1CCOC(=O)NC(Nc1nc(Cl)cc(Cl)n1)C(Cl)(Cl)Cl (stereo not given) | pIC50 | = | 4.81
Cn1c([N+](=O)[O-])cnc1COC(=O)NC(n1cnc2c(N)nc(Cl)nc21)C(Cl)(Cl)Cl (stereo not given) | pIC50 | = | 4.29

---

Tested on: MCF7
Assay: Cytotoxicity in human MCF7 cells assessed as reduction in cell viability incubated for 48 hrs by MTT assay
Assay type: functional, cell-based
Conditions: MCF7, 48 h
pIC50: −log10 of the molar value.
Consider the following compounds and their measured pIC50 readings.
property.measured: pIC50

compound | test.system | property.measured | result.operator | observed
Cc1ncc([N+](=O)[O-])n1CCOC(=O)NC(n1cnc2ccccc21)C(Cl)(Cl)Cl (stereo not given) | MCF7 | pIC50 | < | 3.52
O=C(NC(n1ncc2c(O)ncnc21)C(Cl)(Cl)Cl)OCCc1ccccn1 (stereo not given) | MCF7 | pIC50 | < | 3.52
Cc1ncc([N+](=O)[O-])n1CCOC(=O)NC(n1cnc2c(Cl)nc(N)nc21)C(Cl)(Cl)Cl (stereo not given) | MCF7 | pIC50 | < | 3.52
Cc1ncc([N+](=O)[O-])n1CCOC(=O)NC(Nc1nc(Cl)c(N)c(Cl)n1)C(Cl)(Cl)Cl (stereo not given) | MCF7 | pIC50 | = | 4.69
Cn1c([N+](=O)[O-])cnc1COC(=O)NC(n1cnc2c(N)nc(F)nc21)C(Cl)(Cl)Cl (stereo not given) | MCF7 | pIC50 | = | 5.82
Cc1ncc([N+](=O)[O-])n1CCOC(=O)NC(Nc1cc2ccccc2cn1)C(Cl)(Cl)Cl (stereo not given) | MCF7 | pIC50 | = | 3.85
Cc1ncc([N+](=O)[O-])n1CCOC(=O)NC(n1cnc2c(N)nc(N)nc21)C(Cl)(Cl)Cl (stereo not given) | MCF7 | pIC50 | < | 3.52
Cc1ncc([N+](=O)[O-])n1CCOC(=O)NC(n1cnc2c(Cl)ncnc21)C(Cl)(Cl)Cl (stereo not given) | MCF7 | pIC50 | < | 3.52
Cc1ncc([N+](=O)[O-])n1CCOC(=O)NC(Nc1ccncn1)C(Cl)(Cl)Cl (stereo not given) | MCF7 | pIC50 | < | 3.52
Cc1ncc([N+](=O)[O-])n1CCOC(=O)NC(n1cnc2c(N)nc(F)nc21)C(Cl)(Cl)Cl (stereo not given) | MCF7 | pIC50 | = | 6.10
